Where these numbers come from: patent US10155027B2

TEST: Phase 1 crossover absolute bioavailability, 150 mg oral capsule vs 150 mg IV infusion (Cohort 4)
Assay type: in vivo, human
ASSAY_CONDITIONS: human, plasma; 150 mg IV; read-out: tmax (median)
Counter-ions that a name gives are not always drawn.
PROPERTY: Tmax (h)
The response must be a number in h with no trailing unit.

Q: So what's the measured Tmax for this one? OC[C@H]1NC[C@H](O)[C@@H](O)[C@H]1O [migalastat HCl]
Result: 1.93
